- System: UACC-62 melanoma
- Experiment Notes: NCI tumour cell line growth inhibition, 48 h
Each record here notes measured log10 of TGI.
Parameter Measured: log10 of TGI (log10 of the value in µM)

{"Compound": "CNC(=O)OCC1=C(COC(=O)NC)C(C)N(c2ccc(OC)cc2)C1 (stereo not given)", "log10 of TGI": 1.76}
{"Compound": "CC12CCC(O)CC1CCC1C2CCC2(C)C(C3=CC(=O)OC3)CCC12O (stereo not given)", "log10 of TGI": 1.11}
{"Compound": "COc1cc(-c2nn(-c3ccc(NC(=O)c4ccc(Cl)c(C(F)(F)F)c4)cc3)cc2-c2ccncc2)ccc1Cl", "log10 of TGI": 0.74}
{"Compound": "O=C(O)c1ccccc1[Se][Se]c1ccccc1C(=O)O", "log10 of TGI": 1.92}
{"Compound": "Cn1cnc([N+](=O)[O-])c1Sc1nnc(-c2cccnc2)n1C", "log10 of TGI": 1.51}

###

- Tested on: A498 renal
- Experiment Notes: NCI tumour cell line growth inhibition, 48 h
Classification field: enter rule met for TGI values not below 30 µM, rule not met for values below it.

{"Compound": "CC1=CC2C(O1)C1C(=O)C=CC(=O)C1=CC2[N+](=O)[O-] (stereo unspecified)", "Target Under Test": "A498 renal", "Class": "rule met"}
{"Compound": "Cc1ccccc1-n1c(=O)c2ncn(CCCl)c2n(-c2ccccc2C)c1=S", "Target Under Test": "A498 renal", "Class": "rule met"}
{"Compound": "N.N.N.N.O=[N+]([O-])[O-].[Co+3].[N-]=[N+]=[N-].[N-]=[N+]=[N-]", "Target Under Test": "A498 renal", "Class": "rule met"}
{"Compound": "CNS(=O)(=O)NNS(=O)(=O)c1ccc2ccccc2c1", "Target Under Test": "A498 renal", "Class": "rule met"}
{"Compound": "COc1cc(Cc2cnc(/N=C3\\C(=O)N(CN4CCN(c5c(F)cc6c(=O)c(C(=O)O)cn(C7CC7)c6c5OC)CC4C)c4ccc(F)cc43)nc2N)cc(OC)c1OC (stereo unspecified)", "Target Under Test": "A498 renal", "Class": "rule met"}
{"Compound": "CCOc1cc2c(cc1O)/C(=N\\OC)C[C@@H]1[C@@H]2CC[C@]2(C)[C@@H](O)CC[C@@H]12", "Target Under Test": "A498 renal", "Class": "rule not met"}
{"Compound": "CCCN=C1CCN(Cc2ccccc2)c2ccccc2N1", "Target Under Test": "A498 renal", "Class": "rule not met"}
{"Compound": "CC/C=C\\CCC/C=C1/C(=O)C=C[C@@H]1C/C=C\\CCCC(=O)OC", "Target Under Test": "A498 renal", "Class": "rule met"}
{"Compound": "CCCNC1=C2CC(C)CC(OC)[C@@H](O)[C@H](C)/C=C(\\C)C(OC(N)=O)C(OC)/C=C\\C=C(/C)C(=O)NC(=CC1=O)C2=O (stereo partly specified)", "Target Under Test": "A498 renal", "Class": "rule not met"}
{"Compound": "OCc1ccc(N2CCC2c2ccc(F)cc2)cc1Cl (stereo unspecified)", "Target Under Test": "A498 renal", "Class": "rule not met"}
{"Compound": "C=C(CN1CCN(c2ccc(Cl)cc2F)CC1)c1ccc(C(=O)Nc2ccccc2N)cc1", "Target Under Test": "A498 renal", "Class": "rule met"}
{"Compound": "Cc1cccc2c(=O)cc(-c3ccccc3)[nH]c12", "Target Under Test": "A498 renal", "Class": "rule met"}
{"Compound": "Cc1ccsc1/C=N/Nc1ncccn1", "Target Under Test": "A498 renal", "Class": "rule met"}
{"Compound": "CCOC(=O)C1=C(C)NC(=S)NC1c1ccccc1 (stereo unspecified)", "Target Under Test": "A498 renal", "Class": "rule met"}
{"Compound": "CC1(c2ccc(F)cc2)C(C#N)C(=O)NC(=O)C1C#N (stereo unspecified)", "Target Under Test": "A498 renal", "Class": "rule met"}
{"Compound": "CC(C)/C(Cl)=N\\OC(=O)Nc1ccc(S(N)(=O)=O)cc1", "Target Under Test": "A498 renal", "Class": "rule met"}
{"Compound": "O=C(COc1ccc(Br)cc1Br)N1N=C(c2ccc([N+](=O)[O-])o2)CC1(O)c1ccccc1 (stereo unspecified)", "Target Under Test": "A498 renal", "Class": "rule not met"}
{"Compound": "CCC1(O)CC2CC(=O)OC2C1O (stereo unspecified)", "Target Under Test": "A498 renal", "Class": "rule met"}
{"Compound": "O=C1/C(=C/c2cccc([N+](=O)[O-])c2)COc2ccc(O)cc21", "Target Under Test": "A498 renal", "Class": "rule not met"}
{"Compound": "O=C(/C=C/C12c3ccccc3C(c3ccccc31)C1C(=O)NC(=O)C12)c1ccncc1 (stereo unspecified)", "Target Under Test": "A498 renal", "Class": "rule not met"}
{"Compound": "c1ccc2cc(-c3cc(-c4cc(-c5ccc6ccccc6c5)on4)no3)ccc2c1", "Target Under Test": "A498 renal", "Class": "rule met"}
